# experiment notes: small-molecule microarray binders of probe aDKK1, primary screen, biochemical, biotinylated probe, 635/667 nm fluorescence (AID 1099);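 further: score merges 667nm spot fluorescence with signal to noise across triplicate slides; reference of the scale not given here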
# condition label: higher = more signal
Each item that follows carries a reported composite z-score.
Write the value as a bare number.

molecule	reported
CCN(CC)c1ccc(N2CC=CC34O[C@@H]5C=CCOC(=O)[C@@H]5[C@H]3C(=O)N(CCCO)[C@@H]4C2=O)cc1 (stereo not given in full)	-0.464
COc1ccc([Si](C)(C)[C@H]2[C@H](CCO)O[C@@]3(C(=O)N(Cc4ccccc4)c4ccc(N(C=O)c5ccccc5)cc43)[C@@H]2C)cc1	0.0036
C=CCNC(=O)[C@H]1[C@@H]2C(=O)O[C@@H](c3ccccc3)[C@@H](c3ccccc3)N2[C@@H](c2ccc(O)cc2)[C@]12C(=O)Nc1ccc(C#CC3=CCCCC3)cc12	0.593
NCCCC[C@@H]1NC(=O)[C@H]2C[C@@H](C(=O)NCc3ccc(F)cc3)[C@@H](c3ccc(O)cc3)N2C1=O	0.831
COC(=O)[C@@]1(CCS(=O)(=O)c2ccccc2)N=C(c2ccc(OCCCO)cc2)O[C@H]1c1ccccc1N=[N+]=[N-]	0.336

Now for the molecule whose composite z-score we want.
## Task Determine its reported composite z-score: "[N-]=[N+]=NCc1ccccc1C[C@@]1(C(=O)O)N=C(c2ccc(OCCCO)cc2)O[C@@H]1c1ccccc1CN=[N+]=[N-]"
## Result 0.317

----------
# experiment notes: S. cerevisiae growth modulation with rapamycin, primary screen, strain BY4716, OD600, 96 h (AID 1091); further: test concentration not given here
# condition label: called active from +8 up or from −8 down
Activity calls are given as the source filed them.
Valid outcomes are listed here; reply with one: T for active, F for inactive

compound	label
COc1ccc([Si](C)(C)[C@H]2[C@H](CCn3cc([C@H](O)c4ccccc4)nn3)O[C@@]3(C(=O)N(C)c4c(Br)cc(C)cc43)[C@@H]2C)cc1	F
COCCCN1C(=O)[C@@]2(Cc3ccccc31)c1ccccc1C(=O)N(Cc1ccccc1OC)[C@H]2c1ccc(CO)cc1	F
COC(=O)[C@@]1(CCC(=O)OC(C)(C)C)N=C(c2ccc(OCCCO)cc2)O[C@H]1c1ccccc1CN=[N+]=[N-]	T
C#CCN(C/C=C/c1ccccc1)[C@H](CO[Si](C)(C)C(C)(C)C)c1ccccc1	F
CCc1cccc(NC(=O)O[C@H]2[C@H](OC(=O)Nc3ccc4c(c3)OCO4)[C@H](OC(=O)Nc3ccc4c(c3)OCO4)[C@@H](OC)O[C@@H]2CO)c1	F

## Task Record request — test call for C=CCC(OC(C)=O)[C@@H]1[C@@H](N(Cc2ccc(-c3cccc(C(F)(F)F)c3)o2)C(=O)Cc2ccc(OC)cc2)c2cc(OCCCO)ccc2N1C(=O)c1ccc2ccccc2n1 (some centres not stated)
## Result F

## Task Record request — test call for "[N-]=[N+]=Nc1ccccc1[C@@H]1OC(c2ccc(OCCCO)cc2)=N[C@]1(Cc1ccccc1)C(N)=O"
## Result F

----------
# experiment notes: fission yeast growth modulation, primary screen, strain 972, OD600, 24 h, no modulator (AID 1090);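 further: basal condition with compound alone and no growth modifier present; test concentration not given here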
# condition label: S. pombe 972 growth, higher = more signal, called active from +8 up or from −8 down
The source made the active and inactive calls.
Each item that follows carries a reported z-score.

# annotated cases, reported z-score shown
compound	reported
O=C1OCCC=C[C@H]2OC34C=CCN(CCN5CCOCC5)C(=O)[C@H]3N(CCCO)C(=O)[C@@H]4C12 (stereo not given in full)	-1.14 (inactive)
COCCOC(=O)N1C(=O)[C@@]2(c3cc(C#CC4=CCCCC4)ccc31)[C@H](c1ccccc1OCCO)N1[C@H](c3ccccc3)[C@H](c3ccccc3)OC(=O)[C@H]1[C@@H]2C(N)=O	-0.96 (inactive)
CC1CC/C=C\[C@H]2OC34C=CCN(c5ccc(Cl)cc5)C(=O)[C@H]3N(CCCO)C(=O)[C@]4(C)C2C(=O)O1 (stereo not given in full)	-0.117 (inactive)
O=C1O[C@@H](c2ccccc2)[C@@H](c2ccccc2)N2[C@@H](c3ccc(O)cc3)[C@]3(C(=O)Nc4ccc(C#CC5=CCCCC5)cc43)[C@@H](C(=O)N3CCCCCCC3)[C@H]12	-0.604 (inactive)

Now for the compound whose z-score we want.
## Task Determine its reported z-score: "COCCn1c(C(=O)N2CCCC2)cc2c1C[C@H]1CN(C(=O)c3ccccc3)[C@@](Cc3ccccc3)(C(=O)OC)[C@@H]21"
## Result 0.105 (inactive)

----------
# Test system: Neuregulin-1 EGF-like domain
# experiment notes: binders of neuregulin-1 EGF-like domain, primary screen, biochemical, small-molecule microarray, 635 nm fluorescence (AID 1081);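 further: binding of the protein to compounds printed on small-molecule microarray slides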
# condition label: small-molecule microarray binding, higher = more signal
readout: composite z-score
Write the value as a bare number.

# annotated cases, reported composite z-score shown
> print(dat)
                                   compound            readout  reported
1  CCCCCCc1nc(-c2ccc(OC)nc2)cc2c1[Si](C(C)C)(C(C)C)OC2  composite z-score    -0.769
2  [N-]=[N+]=NCc1ccccc1C[C@]1(C(=O)NCc2ccccc2)N=C(c2ccc(OCCCO)cc2)O[C@H]1c1ccccc1CN=[N+]=[N-]  composite z-score      1.16
3  COc1ccc([Si](C)(C)[C@H]2[C@H](CCO)O[C@@]3(C(=O)N(Cc4ccccc4)c4ccc(N(C=O)c5ccccc5)cc43)[C@@H]2C)cc1  composite z-score     0.818
4  CN(C)CCCC[C@@H]1NC(=O)[C@@H]2C[C@H](C(=O)NCc3ccc(F)cc3)[C@H](c3ccc(O)cc3)N2C1=O  composite z-score      1.49
5  C=C(CCCC)/C(=C/C[C@H](OC(C)=O)c1cccc(OCCO)c1)c1cc(C(=O)OC)ccc1OC  composite z-score     0.131

## Task Determine its reported composite z-score: O=C1OCCC/C=C\[C@H]2OC34C=CCN(Cc5ccccc5)C(=O)[C@H]3N(CCCCCO)C(=O)[C@@H]4C12 (stereo partly drawn)
## Result 0.387

## Task Determine its reported composite z-score: "COc1ccc(CCNC(=O)[C@@H]2c3ccccc3C(=O)N(CC34CC5CC(CC(C5)C3)C4)[C@H]2c2ccc(CO)cc2)cc1"
## Result 1.24

## Task Determine its reported composite z-score: "COc1ccc([Si](C)(C)[C@H]2[C@H](CCO)O[C@@]3(C(=O)N(Cc4ccc(N5CCOC5=O)cc4)c4ccccc43)[C@@H]2C)cc1"
## Result 0.664

----------
# study target: E3 ubiquitin-protein ligase XIAP (Homo sapiens)
# experiment notes: XIAP binders, primary screen, biophysical, small-molecule microarray, fluorescence 635 nm (AID 1181);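 further: score merges 667 nm emission and signal to noise over triplicate slides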
# condition label: small-molecule microarray binding, higher = more signal
readout: composite z-score
Write the value as a bare number.

# annotated cases, reported composite z-score shown
compound	composite z-score
C=CCC(OC(C)=O)[C@@H]1[C@@H](N(Cc2ccc(-c3cccc(C(F)(F)F)c3)o2)C(=O)c2cccc3ccccc23)c2cc(OCCCO)ccc2N1C(=O)c1ccc2ccccc2c1 (some centres undefined)	-0.04
COC(=O)[C@@]1(CCS(=O)(=O)c2ccccc2)N=C(c2ccc(OCCCO)cc2)O[C@H]1c1ccccc1N=[N+]=[N-]	-0.0374

## Task Determine its reported composite z-score: "CC(C)C[C@@H]1NC(=O)[C@H]2C[C@@H](C(=O)NCCCCCNC(=O)CS)[C@@H](c3ccc(O)cc3)N2C1=O"
## Result -0.0577

## Task Determine its reported composite z-score: C=CCC(OC(C)=O)[C@@H]1[C@@H](N(Cc2cccc3ccccc23)C(=O)c2ccc(-c3ccccc3)cc2)c2cc(OCCCO)ccc2N1C(=O)c1ccc2ccccc2n1 (some centres undefined)
## Result -0.0102

----------
# study target: Pro-neuregulin-1, membrane-bound isoform (Homo sapiens)
# experiment notes: NRG1 binders on small-molecule microarrays, primary screen, psychiatric disease protein project, biochemical, small-molecule microarray, fluorescence 635/667 (AID 1075);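 further: score combines 667 nm spot fluorescence with signal to noise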
# condition label: NRG1 binding, 635 nm fluorescence, higher = more signal
Please note: Y applies when composite z-score is 0.7 or greater, and N applies otherwise.

molecule	label
C=CCNC(=O)[C@H]1[C@@H]2C(=O)O[C@@H](c3ccccc3)[C@@H](c3ccccc3)N2[C@@H](c2ccc(O)cc2)[C@]12C(=O)Nc1ccc(C#CC3=CCCCC3)cc12	N
C=CCC(OC(C)=O)[C@@H]1[C@@H](N(Cc2cccc3ccccc23)C(=O)c2ccc(C)cc2)c2cc(OCCCO)ccc2N1C(=O)c1ccc2ccccc2n1 (stereo partly drawn)	N
COCCCN1C(=O)[C@@]2(Cc3ccccc31)c1ccccc1C(=O)N(Cc1ccccc1OC)[C@H]2c1ccc(CO)cc1	Y
O=C1O[C@@H](c2ccccc2)[C@@H](c2ccccc2)N2[C@@H](c3ccc(OCCO)cc3)[C@]3(C(=O)Nc4ccc(C#CCCO)cc43)[C@@H](C(=O)Nc3nc4ccccc4s3)[C@H]12	Y

## Task Identify whether the reported composite z-score of the following molecule is 0.7 or greater: "CO[C@H]1O[C@H](CO)[C@@H](OC(=O)Nc2ccc(C(F)(F)F)cc2)[C@H](OC(=O)Nc2ccccc2-c2ccccc2)[C@H]1OC(=O)Nc1ccccc1-c1ccccc1"
## Result Y

## Task Identify whether the reported composite z-score of the following molecule is 0.7 or greater: O=C1C2C=CC(C(O)c3ccc([N+](=O)[O-])cc3)N(Nc3ccccc3)C2C(=O)N1c1ccccc1 (stereo not drawn)
## Result Y

## Task Identify whether the reported composite z-score of the following molecule is 0.7 or greater: "COc1ccc([Si](C)(C)[C@H]2[C@H](CCO)O[C@@]3(C(=O)N(Cc4ccccc4)c4ccc(N(C=O)c5ccccc5)cc43)[C@@H]2C)cc1"
## Result Y

Hey, just so you know, these numbers are from PubChem BioAssay.
